Values were extracted from patent US5616573A.

Biological target: Leukocyte Elastase (Homo sapiens)
Construct: also pure human sputum elastase (Elastin Products)
Sequence (P08246 30-267): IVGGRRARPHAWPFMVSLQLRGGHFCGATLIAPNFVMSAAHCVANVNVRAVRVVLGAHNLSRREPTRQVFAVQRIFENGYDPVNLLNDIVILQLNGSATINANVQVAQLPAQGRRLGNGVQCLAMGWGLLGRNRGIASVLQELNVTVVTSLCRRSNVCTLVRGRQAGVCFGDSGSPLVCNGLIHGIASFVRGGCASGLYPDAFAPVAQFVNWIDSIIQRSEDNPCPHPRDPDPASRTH
Experiment: Cleavage of Glucocorticoid-21-Oligopeptide Esters by Leukocyte Elastase in the lysate of human neutrophilic granulocytes
Format: biochemical
Conditions: lysate of human neutrophilic granulocytes, 10^6 cells per ml, 1 hour at 37° C.; Fmoc-Ala-Ala-Pro-Val-O-MPP is used as reference
Where a SMILES comes first, the peptide text is derived from it. [ ]: non-standard residue; d: D form. The star is where a group is joined. Methylprednisolone(17-OCOEt) = CCC(=O)O[C@]1(C(=O)CO*)CC[C@H]2[C@@H]3C[C@H](C)C4=CC(=O)C=C[C@]4(C)[C@H]3[C@@H](O)C[C@@]21C; X2 = C[C@@H]1C[C@H]2[C@@H]3C[C@H](F)C4=CC(=O)C=C[C@]4(C)[C@H]3[C@@H](O)C[C@]2(C)[C@H]1C(=O)CO*; X1 = C[C@H]1C[C@@H]2[C@H]([C@@H](O)C[C@@]3(C)[C@H]2CC[C@]3(O)C(=O)CO*)[C@@]2(C)C=CC(=O)C=C12; Fmoc = O=C(OCC1c2ccccc2-c2ccccc21)*; Boc = CC(C)(C)OC(=O)*; Aib = CC(C)(N)C(=O)O
METRIC NAME: Relative Hydrolysis Rate [%] (%)
// note: answer is a bare numeric in %

As a guide, the following entries are already answered.
* CCC(=O)O[C@]1(C(=O)COC(=O)[C@@H](NC(=O)[C@@H]2CCCN2C(=O)[C@H](C)NC(=O)[C@H](C)NC(=O)C(C)(C)NC(=O)OCC2c3ccccc3-c3ccccc32)C(C)C)CC[C@H]2[C@@H]3C[C@H](C)C4=CC(=O)C=C[C@]4(C)[C@H]3[C@@H](O)C[C@@]21C [Example 18] (Fmoc-[Aib]AAPV-{Methylprednisolone(17-OCOEt)}) | 130
* CC(C)[C@H](NC(=O)[C@@H]1CCCN1C(=O)[C@H](C)NC(=O)[C@H](C)NC(=O)OC(C)(C)C)C(=O)OCC(=O)[C@H]1[C@H](C)C[C@H]2[C@@H]3C[C@H](F)C4=CC(=O)C=C[C@]4(C)[C@H]3[C@@H](O)C[C@@]21C [Example 32] (Boc-AAPV-X2) | 380

Now consider the entry below.
Reported Relative Hydrolysis Rate [%] for CC(C)[C@H](NC(=O)[C@@H]1CCCN1C(=O)[C@H](C)NC(=O)[C@H](C)NC(=O)OCC1c2ccccc2-c2ccccc21)C(=O)OCC(=O)[C@@]1(O)CC[C@H]2[C@@H]3C[C@H](C)C4=CC(=O)C=C[C@]4(C)[C@H]3[C@@H](O)C[C@@]21C [Example 22] (Fmoc-AAPV-X1) : what is it?
370

###

tested on: Esterases of Rat Skin; assay: Cleavage in the Homogenate of Normal Rat Skin (unspecific cleavage by esterases of rat skin); format: in vitro ADME; details: percent of hydrolysis rate of 6α-methylprednisolone-17-propionate-21-acetate; approximately 100 μmol/l, pH=7.4, 37° C.
*1 amine or outer side, *2 acyl side, *3 side chain or, on linkers, in order; H or OH if unused. Where a SMILES comes first, the peptide text is derived from it. The star is where a group is joined. Methylprednisolone(17-OCOEt) = CCC(=O)O[C@]1(C(=O)CO*)CC[C@H]2[C@@H]3C[C@H](C)C4=CC(=O)C=C[C@]4(C)[C@H]3[C@@H](O)C[C@@]21C; Fmoc = O=C(OCC1c2ccccc2-c2ccccc21)*; 2Naphthoyl = O=C(c1ccc2ccccc2c1)*; X6 = O=C(CCn1c2ccccc2c2ccccc21)*; X7 = O=S(=O)(c1ccc(Cl)cc1)*; X8 = c1ccc(N(c2ccccc2)*)cc1; Boc = CC(C)(C)OC(=O)*; CO = O=C([*:1])[*:2]
METRIC NAME: Relative Hydrolysis Rate [%] (%)
// note: answer is a bare numeric in %

As a guide, the following entries are already answered.
• CCC(=O)O[C@]1(C(=O)COC(=O)[C@@H](NC(=O)[C@@H]2CCCN2C(=O)[C@H](C)NC(=O)[C@H](C)NS(=O)(=O)c2ccc(Cl)cc2)C(C)C)CC[C@H]2[C@@H]3C[C@H](C)C4=CC(=O)C=C[C@]4(C)[C@H]3[C@@H](O)C[C@@]21C [Example 14] (X7-AAPV-{Methylprednisolone(17-OCOEt)}) = 6
• CCC(=O)O[C@]1(C(=O)COC(=O)[C@@H](NC(=O)[C@@H]2CCCN2C(=O)[C@H](C)NC(=O)[C@H](C)NC(=O)OCC2c3ccccc3-c3ccccc32)C(C)C)CC[C@H]2[C@@H]3C[C@H](C)C4=CC(=O)C=C[C@]4(C)[C@H]3[C@@H](O)C[C@@]21C [Example 4] (Fmoc-AAPV-{Methylprednisolone(17-OCOEt)}) = 4
• CCC(=O)O[C@]1(C(=O)COC(=O)[C@@H](NC(=O)[C@@H]2CCCN2C(=O)[C@H](C)NC(=O)[C@H](C)NC(=O)OC(C)(C)C)C(C)C)CC[C@H]2[C@@H]3C[C@H](C)C4=CC(=O)C=C[C@]4(C)[C@H]3[C@@H](O)C[C@@]21C [Example 3] (Boc-AAPV-{Methylprednisolone(17-OCOEt)}) = 50
• CCC(=O)O[C@]1(C(=O)COC(=O)[C@@H](NC(=O)[C@@H]2CCCN2C(=O)[C@H](C)NC(=O)[C@H](C)NC(=O)N(c2ccccc2)c2ccccc2)C(C)C)CC[C@H]2[C@@H]3C[C@H](C)C4=CC(=O)C=C[C@]4(C)[C@H]3[C@@H](O)C[C@@]21C [Example 11] ({X8-CO}-AAPV-{Methylprednisolone(17-OCOEt)}) = 14
• CCC(=O)O[C@]1(C(=O)COC(=O)[C@@H](NC(=O)[C@@H]2CCCN2C(=O)[C@H](C)NC(=O)[C@H](C)NC(=O)CCn2c3ccccc3c3ccccc32)C(C)C)CC[C@H]2[C@@H]3C[C@H](C)C4=CC(=O)C=C[C@]4(C)[C@H]3[C@@H](O)C[C@@]21C [Example 16] (X6-AAPV-{Methylprednisolone(17-OCOEt)}) = 3

Now consider the entry below.
Reported Relative Hydrolysis Rate [%] for CCC(=O)O[C@]1(C(=O)COC(=O)[C@@H](NC(=O)[C@@H]2CCCN2C(=O)[C@H](C)NC(=O)[C@H](C)NC(=O)c2ccc3ccccc3c2)C(C)C)CC[C@H]2[C@@H]3C[C@H](C)C4=CC(=O)C=C[C@]4(C)[C@H]3[C@@H](O)C[C@@]21C [Example 12] (2Naphthoyl-AAPV-{Methylprednisolone(17-OCOEt)}) : what is it?
4

###

Catalogue of compounds with associated Relative Hydrolysis Rate [%]
Biological target: Leukocyte Elastase (Homo sapiens)
Construct: also pure human sputum elastase (Elastin Products)
Sequence (P08246 30-267): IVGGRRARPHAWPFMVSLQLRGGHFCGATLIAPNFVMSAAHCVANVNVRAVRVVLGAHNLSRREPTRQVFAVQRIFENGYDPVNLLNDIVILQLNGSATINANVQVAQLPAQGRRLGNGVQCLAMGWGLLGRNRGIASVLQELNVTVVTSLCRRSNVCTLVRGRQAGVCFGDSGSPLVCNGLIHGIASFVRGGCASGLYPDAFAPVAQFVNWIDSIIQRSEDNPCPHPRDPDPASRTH
Assay: Cleavage of Glucocorticoid-21-Oligopeptide Esters by Leukocyte Elastase in the lysate of human neutrophilic granulocytes
Type: biochemical
Details: lysate of human neutrophilic granulocytes, 10^6 cells per ml, 1 hour at 37° C.; Fmoc-Ala-Ala-Pro-Val-O-MPP is used as reference
Where a SMILES comes first, the peptide text is derived from it. The star is where a group is joined. Methylprednisolone(17-OCOEt) = CCC(=O)O[C@]1(C(=O)CO*)CC[C@H]2[C@@H]3C[C@H](C)C4=CC(=O)C=C[C@]4(C)[C@H]3[C@@H](O)C[C@@]21C; Fmoc = O=C(OCC1c2ccccc2-c2ccccc21)*
// note: answer is a bare numeric in %

• CCCCC(=O)O[C@]1(C(=O)COC(=O)[C@@H](NC(=O)[C@@H]2CCCN2C(=O)[C@H](C)NC(=O)[C@H](C)NC(=O)OCC2c3ccccc3-c3ccccc32)C(C)C)[C@@H](C)C[C@H]2[C@@H]3CCC4=CC(=O)C=C[C@]4(C)[C@@]3(F)[C@@H](O)C[C@@]21C = 42

Now consider the entry below.
Entry CCC(=O)O[C@]1(C(=O)COC(=O)[C@@H](NC(=O)[C@@H]2CCCN2C(=O)[C@H](C)NC(=O)[C@H](C)NC(=O)OCC2c3ccccc3-c3ccccc32)C(C)C)CC[C@H]2[C@@H]3C[C@H](C)C4=CC(=O)C=C[C@]4(C)[C@H]3[C@@H](O)C[C@@]21C [Example 4] (Fmoc-AAPV-{Methylprednisolone(17-OCOEt)}) , system Leukocyte Elastase (Homo sapiens): what Relative Hydrolysis Rate [%] was measured?
100
